Target: human plasmin (Homo sapiens)
Sequence (P00747 581-810 limits assumed): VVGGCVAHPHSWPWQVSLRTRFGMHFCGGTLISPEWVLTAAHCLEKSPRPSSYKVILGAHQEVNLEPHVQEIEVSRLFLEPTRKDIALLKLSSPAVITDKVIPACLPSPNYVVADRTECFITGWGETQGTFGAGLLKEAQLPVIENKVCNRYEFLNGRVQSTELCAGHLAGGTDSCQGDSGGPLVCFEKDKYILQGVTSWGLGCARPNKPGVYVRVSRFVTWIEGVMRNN
Sequence (P00747 97-580 partner limits assumed): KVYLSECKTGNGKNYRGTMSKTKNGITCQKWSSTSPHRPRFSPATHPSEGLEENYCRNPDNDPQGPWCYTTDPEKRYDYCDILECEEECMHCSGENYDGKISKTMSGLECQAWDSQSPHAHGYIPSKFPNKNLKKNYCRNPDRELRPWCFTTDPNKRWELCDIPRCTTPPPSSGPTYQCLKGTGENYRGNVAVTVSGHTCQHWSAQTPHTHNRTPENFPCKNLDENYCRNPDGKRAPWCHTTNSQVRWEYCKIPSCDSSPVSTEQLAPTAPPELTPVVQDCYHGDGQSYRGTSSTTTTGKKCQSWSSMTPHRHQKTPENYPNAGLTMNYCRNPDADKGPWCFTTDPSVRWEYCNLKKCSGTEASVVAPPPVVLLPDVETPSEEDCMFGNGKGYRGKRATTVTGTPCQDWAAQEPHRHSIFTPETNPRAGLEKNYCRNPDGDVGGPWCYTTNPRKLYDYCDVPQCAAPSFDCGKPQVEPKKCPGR
Assay: In vitro inhibition of purified plasmin (hydrolysis of Tos-Gly-Pro-Lys-pNa)
Type: biochemical
Details: purified human plasmin 15 nM, pH 7.5, 37° C.; read-out: Plasmin Inhibition (IC50)
Experimental: The ability of the compounds of the present invention to act as inhibitors of thrombin, factor Xa and plasmin catalytic activity was assessed by determining the concentration that inhibited enzyme activity by 50% using purified human enzymes. […] In a typical IC50 determination, into each well of a 96 well plate is pipetted 280 μL of substrate solution, 10 μL of inhibitor solution, and the plate is allowed to thermally equilibrate at 37° C. in a Molecular Devices Plate Reader for at least 10 minutes. […]
pIC50: −log10 of the molar value.
measuredEndpoint: pIC50

[a] COc1cc(CNC(=O)c2cccc(NS(=O)(=O)c3ccccc3)c2)ccc1O [Compound 20]
[b] CN(C)c1ccc(CNC(=O)c2cccc(NS(=O)(=O)c3cccc(N)c3)c2)cc1 [Compound 31]
Query string: Of a and b , which one carries the higher reported pIC50? Lab note: record the label of whichever item you select.
Result string: a

# credit: patent US5741819A
